# Tested on: HOP-92 NSCLC
# testDetails: NCI-60 one-dose screen, 48 h (100 = growth as untreated, 0 = no growth, -100 = all killed)
# conditionNotes: 10 µM unless noted
The panel holds about 83,000 compounds, 20% with a hit somewhere; the sample as a whole holds those more often.
Answer each item with its documented growth.
Numbers only, in %.

CN(C)c1ccc(C(=S)c2ccc(N(C)C)cc2)cc1 = 71.3
CN(C)CCC(=O)C1CC1 = 101
COc1cc2c(c(OC)c1OC)CCC(c1cccc(C(=O)Nc3ccc(Br)cc3)c1)O2 (stereo unspecified) = 17
O=C(/C=C/C12c3ccccc3C(c3ccccc31)C1C(=O)NC(=O)C12)c1ccc(I)cc1 (stereo unspecified) = 63.7
CCOC(=O)c1cn2ncnc(Oc3ccc(NC(=O)NC4CC4)c(Cl)c3)c2c1C = 109

Hey, can you go through the list below and give me growth for every item?
1. CN(C)Cc1cc(C(C)(C)C)cc(Br)c1O
2. CC(C)(Sc1cc(C(C)(C)C)c(O)c(C(C)(C)C)c1)Sc1cc(C(C)(C)C)c(OC(=O)CCC(=O)O)c(C(C)(C)C)c1

[out]
87.5
35.8

====

# System: OVCAR-3 ovarian
# testDetails: NCI-60 one-dose screen, 48 h (100 = growth as untreated, 0 = no growth, -100 = all killed)
# conditionNotes: 10 µM unless noted
Compounds without any hit were thinned out: in the full panel of roughly 83,000, 20% have a hit.
propertyMeasured: growth (%)
Numbers only, in %.

Below, each entry is followed by its recorded growth result.
COc1ccccc1/C=C/C(=O)Nc1ccc(F)cc1 = 104
CN(C)CCC(CCN(C)C)(C(=O)O)c1ccccc1 = 113
Cc1cc(C(=O)CCCC(=O)c2cc(C)c(O)c(C)c2)cc(C)c1O = 105
O=S(=O)(Nc1cc(Sc2nc3ccccc3s2)c(O)c2ccccc12)c1ccc2ccccc2c1 = 82.6

// for each compound in input: emit growth
1. C1CCC(N2CN3c4nonc4N4CN(C5CCCCC5)CN5c6nonc6N(C2)C3C45)CC1 (stereo unspecified)
2. O=C1C=C(SCCO)C(=O)c2ccccc21
3. CCOC(=O)c1c(NC(=O)c2ccccc2)sc2c3c(ccc12)OCN(C)C3
4. C#Cc1cccc(Nc2ncnc3cc(NC(=O)CCl)ccc23)c1
5. O=C(NCCNC(c1ccccc1)C(NCCNC(=O)c1ccccc1)c1ccccc1)c1ccccc1 (stereo unspecified)

[out]
1. 101
2. -3.21
3. 52.1
4. -88.7
5. 116

Quick one: give me growth for each item below, same order please.
1. O=c1cc(C(F)(F)F)c2cc(-c3cc4ccccc4c(=O)o3)c(O)cc2o1
2. COC12C=C/C(=C(/C(=O)OCc3cncnc3)C(=O)CCCCCCCCC3(OC)C=C/C(=C(/C(=O)OCc4cncnc4)C(=O)CCCCCCCC1)O3)O2
3. COCCn1cc(-c2csc(-c3c[nH]c4ccc(F)cc34)n2)c2cccnc21
4. CCCCCc1ccc(S(=O)(=O)Nc2ccc3nc(N)oc3c2)cc1
5. c1csc(-c2cn3nc(-c4c[nH]c5ccccc45)sc3n2)c1
6. c1cc(OCCN2CCCCC2)ccc1CNc1ccc2nc(CCC3CCCCC3)[nH]c2c1

[out]
1. 56.9
2. -57.8
3. 15.2
4. 64.5
5. -7.97
6. 48.4

Give me growth for each of these compounds, listed below.
1. COc1ccc(/C=N/Nc2c3ccccc3nc3ccccc23)cc1
2. Nc1ccc(-c2ccncc2)cc1NC(=O)N1CCCC1

[out]
[91.7, 99.3]

====

# System: MDA-MB-435 melanoma
# testDetails: NCI-60 one-dose screen, 48 h (100 = growth as untreated, 0 = no growth, -100 = all killed)
# conditionNotes: 10 µM unless noted
Compounds without any hit were thinned out: in the full panel of roughly 83,000, 20% have a hit.
I'd appreciate it if you could supply growth values for the items below.
Answers are plain numbers, in %.

O=S(=O)(Nc1ccc2ccccc2c1)c1ccc(-c2cnc(C3CC3)o2)cc1 = -30.2
Cn1c(=O)c2[nH]c(SC/C(=N/O)c3ccc(Br)cc3)nc2n(C)c1=O = 52
COc1cc2c(c(OC)c1OC)C(=O)CC(c1cccc(C(=O)Nc3ccccc3Br)c1)O2 (stereo not given) = 83.9
COC(=O)c1c2c(c[n+]([O-])c1C)C(=O)C=C(NCc1ccccc1)C2=O = -86.5

Now, please, on to the next molecule.
[in] What value of measured growth is listed for "COc1cc(-c2ccc(-c3ccc(C(=N)N)cc3)s2)cc(OC)c1OC" ?
[out] 40.4

====

# Test system: CAKI-1 renal
# testDetails: NCI-60 one-dose screen, 48 h (100 = growth as untreated, 0 = no growth, -100 = all killed)
# conditionNotes: 10 µM unless noted
This is part of a sample that, as a whole, favours compounds with a hit. Of some 83,000 tested, about 20% had one in any assay.
Would you mind labelling by growth? At or over 60% is Satisfied, under is Not satisfied.

Examples with answers:
Cc1ccc2nc(-c3ccc(C(=O)N/N=C/c4ccc([N+](=O)[O-])cc4)cc3)[nH]c2c1 = Satisfied
Cc1cc(C(=O)CCCC(=O)c2cc(C)c(O)c(C)c2)cc(C)c1O = Satisfied
Cc1ccc(C(=O)c2ccc(CC(=O)N/N=C/c3cccc(O)c3O)n2C)cc1 = Not satisfied

Okay, next one:
[in] Please tell me: is the molecule "COc1cc2c(cc1-c1c(C)noc1C)ncc1nc(CN3CCOCC3)n([C@H](C)COC(F)F)c12" at or over 60% in terms of growth?
[out] Not satisfied

====

# System: OVCAR-8 ovarian
# testDetails: NCI-60 one-dose screen, 48 h
# conditionNotes: 10 µM unless noted
The panel holds about 83,000 compounds, 20% with a hit somewhere; the sample as a whole holds those more often. The source made the active and inactive calls. The calls were made as follows: active = growth percent below 10; inactive = the rest.
The categories you may choose from are YES (active), NO (inactive)

Consider the worked cases shown below.
OC1CSSC1Cn1cnc2c(Nc3ccc(OCc4cccc(F)c4)c(Cl)c3)ncnc21 (stereo not given) = NO
COc1cc(Cc2cc(-c3ccccc3)nn(Cc3ccccc3)c2=O)cc(OC)c1OC = NO
C#Cc1cccc(Nc2ncnc3cc(NC(=O)CCl)ccc23)c1 = YES
N#Cc1c(-c2cccc(Cl)c2)cc(-c2cccnc2)[nH]c1=O = NO
COc1ccc(/C=C(\C(=O)NCc2cccnc2)S(=O)(=O)c2ccccc2)cc1OC = NO

[in] # fetch the recorded call for CCCC(=O)NC(c1ccc2c(c1)OCO2)c1cc(Cl)c2cccnc2c1O (stereo not given) here
[out] NO

[in] Field: outcome | Entry: "CCCCNC(=O)c1ccc2c(c1)nc(-c1ccccc1)n2C1CCCCC1"
[out] NO

[in] Recorded test call requested for "CS(=O)(=O)Nc1cc(-c2ccc3ncnc(Nc4ccc5c(cnn5Cc5ccncc5)c4)c3c2)cnc1Cl"
[out] NO

[in] I would be grateful if you could indicate the recorded call for COc1ccc2c(c1)C(C)Cc1c(ncnc1-n1cnc3cc(C)ccc31)N2C (stereo not given) .
[out] YES

[in] Recorded test call requested for "Cc1nc2sc(C(=O)Nc3cccc4ccccc34)c(N)c2cc1C(=O)c1ccccc1"
[out] NO

[in] Test call, this compound: "Cc1nc(N/N=C/c2cn(-c3ccccc3)nc2-c2cc3ccccc3oc2=O)sc1N=Nc1ccccc1"
[out] NO

====

# Test system: MCF7 breast
# testDetails: NCI-60 one-dose screen, 48 h (100 = growth as untreated, 0 = no growth, -100 = all killed)
# conditionNotes: 10 µM unless noted
Compounds without any hit were thinned out: in the full panel of roughly 83,000, 20% have a hit.
Exercise: state measured growth for each of the compounds provided.
Give bare numbers, in %.

COc1nc(/C=C\Nc2ccc3c(c2)OCCOCCOCCOCCO3)nc(OC)n1 = 93
CC1=C(Cl)C(=O)c2cc(C)ccc2C1=O = 91.2
O=C(OCc1ccc2c(Cl)cc(Cl)c(O)c2n1)N1CCN(C(=O)c2cc3ccccc3[nH]2)CC1 = 25.3
CCN(CCNc1ccc(C)c2sc3cc(Cl)ccc3c(=O)c12)CC(C)(C)O = 58.5

Hey, can you go through the list below and give me growth for every item?
1. CC(O)CNC(Cc1ccccc1)c1ccc2c(c1)OCO2 (stereo not drawn)
2. COC(=O)c1nc(-c2ccccc2)oc1S(=O)(=O)N1CCCC(C)C1 (stereo not drawn)
3. CC1(C)CC[C@]2(CO)CC[C@]3(C)[C@](O)([C@H](O)C[C@@H]4[C@@]5(C)CCCNC(C)(C)[C@@H]5CC[C@]43C)[C@@H]2C1
4. Cc1ccc(C2CC(c3cccc(Nc4ccncc4)c3)=Nc3c(N)nc(N)nc3N2)cc1 (stereo not drawn)

[out]
1: 91.5; 2: 47.3; 3: 91.7; 4: 37.7

====

# Test system: 786-0 renal
# testDetails: NCI-60 one-dose screen, 48 h (100 = growth as untreated, 0 = no growth, -100 = all killed)
# conditionNotes: 10 µM unless noted
About 83,000 compounds went through this panel and 20% of them were active in at least one assay; those are over-represented in the sample as a whole.
Returns: string. Value is TRUE if measured growth is below 50%, and FALSE if it is greater than or equal to it.

Consider the worked cases shown below.
CCSc1ccnc(N)n1 = FALSE
Cc1nc(N/N=C/c2cn(-c3ccccc3)nc2-c2cc3ccccc3oc2=O)sc1N=Nc1ccccc1 = FALSE
CN(C)c1ccc(/C=C2\C=C(c3nc4ccccc4s3)OC2=O)cc1 = FALSE
c1cc(OCCN2CCCC2)ccc1CNc1ccc2nc(CCC3CCCCC3)[nH]c2c1 = TRUE

Now consider the entry below.
[in] Is growth strictly under 50% for the entry "CCn1cc(Cc2cc(C(=O)Nc3cc4cc(OC)c(OC)cc4c(C)n3)ccc2Cl)cn1" ?
[out] FALSE

Where these numbers come from: PubChem BioAssay (NCI)
